- assay: CHI Log D procedure
- Assay type: physicochemical
- protocol.conditions: pH 7.4
endpoint: CHI Log D
Answer with a bare number; do not write a unit.

// known answers, use as guide
[
  {
    "compound": "CC(=O)N1CCC[C@]12CC=CCCCC1(CCCC=CCCCOC(=O)N3CC[C@@](C(=O)N[C@@H](Cc4ccsc4)C(=O)N[C@@H](Cc4csc5ccccc45)C(=O)N[C@@H](Cc4c[nH]cn4)C(N)=O)(C3)NC(=O)[C@H](CC(N)=O)NC(=O)[C@H](Cc3ccccc3)NC(=O)[C@H](C)NC(=O)[C@H](C)NC(=O)[C@H](CC(=O)O)NC(=O)[C@H](CC(=O)O)NC1=O)NC(=O)[C@H](CC(C)(C)C)NC(=O)[C@H](CC(=O)O)NC2=O (some centres unmarked) [I-694]",
    "CHI Log D": 2.073
  },
  {
    "compound": "CC(=O)N1CCC[C@]12CC=CCCCC1(CCCC=CCCCCCC[C@@](C)(C(=O)N[C@@H](Cc3ccccc3)C(=O)N[C@@H](Cc3csc4ccccc34)C(=O)N[C@@H](Cc3c[nH]cn3)C(N)=O)NC(=O)[C@H](CCC(N)=O)NC(=O)[C@H](Cc3ccccc3)NC(=O)[C@H](C)NC(=O)[C@H](C)NC(=O)[C@H](CCC(=O)O)NC(=O)[C@H](CC(=O)O)NC1=O)NC(=O)[C@H](C)NC(=O)[C@H](CC(=O)O)NC2=O (some centres unmarked) [I-419]",
    "CHI Log D": 2.114
  },
  {
    "compound": "CCN(CC(=O)O)C[C@@H]1NC(=O)[C@H](CC(=O)O)NC(=O)C2(CCCC=CCCCCCC[C@@](C)(C(=O)N[C@@H](Cc3ccccc3)C(=O)N[C@@H](Cc3c[nH]c4ccccc34)C(=O)N[C@@H](CCC(N)=O)C(N)=O)NC(=O)[C@H](C(C)C)NC(=O)[C@H](Cc3ccccc3)NC(=O)[C@H](C)NC(=O)[C@H](C)NC1=O)CCCC=CC[C@]1(CCCN1C(C)=O)C(=O)N[C@@H](CC(=O)O)C(=O)N[C@@H](C)C(=O)N2 (some centres unmarked) [I-173]",
    "CHI Log D": 3.076
  },
  {
    "compound": "CC[C@H](C)[C@@H]1NC(=O)[C@H](CC(=O)O)NC(=O)[C@]2(CC=CCCCC3(CCCC=CCCCCCC[C@@](C)(C(=O)N[C@@H](Cc4ccsc4)C(=O)N[C@@H](Cc4csc5ccccc45)C(=O)N[C@@H](CCC(N)=O)C(N)=O)NC(=O)[C@H](CC(N)=O)NC(=O)[C@H](Cc4ccccc4)NC(=O)[C@H](C)NC(=O)[C@H](C)NC(=O)[C@H](CC(=O)O)NC(=O)[C@H](CC(=O)O)NC3=O)NC1=O)CCCN2C(C)=O (some centres unmarked) [I-552]",
    "CHI Log D": 2.334
  }
]

Quick one: CHI Log D of CC(=O)N1CCC[C@]12CC=CCCCC1(CCCC=CCCCCCC[C@@](C)(C(=O)N[C@@H](Cc3ccccc3)C(=O)N[C@@H](Cc3csc4ccccc34)C(=O)N[C@@H](Cc3c[nH]cn3)C(N)=O)NC(=O)[C@H](CCC(N)=O)NC(=O)[C@H](Cc3ccccc3)NC(=O)[C@H](C)NC(=O)[C@H](C)NC(=O)[C@H](CC(=O)O)NC(=O)[C@H](CC(=O)O)NC1=O)NC(=O)[C@H](C)NC(=O)[C@H](CC(=O)O)NC2=O (some centres unmarked) [I-360] ?
2.017

----------
- measurement.target: full-length beta-Catenin (Uniprot ID P35222) (Homo sapiens)
- Construct: 10 nM full-length beta-Catenin (Uniprot ID P35222)
- assay: Fluorescence polarization IC50 (beta-catenin / 5FAM-TCF4 10-53 competition)
- Type: binding
- protocol.conditions: fluorescence polarization; read-out: beta-Catenin FP IC50
endpoint: IC50 (nM)
Please state the figure in nM; there is no need to write the unit.

// known answers, use as guide
[
  {
    "compound": "CC(=O)N1CCC[C@]12CC=CCCCC1(CCCC=CCCCOC(=O)N3CC[C@@](C(=O)N[C@@H](Cc4ccsc4)C(=O)N[C@@H](Cc4csc5ccccc45)C(=O)N[C@@H](CCC(N)=O)C(N)=O)(C3)NC(=O)[C@H](CC(N)=O)NC(=O)[C@H](Cc3cccc(C(=O)O)c3)NC(=O)[C@H](C)NC(=O)[C@H](C)NC(=O)[C@H](Cc3c[nH]cn3)NC(=O)[C@H](CC(=O)O)NC1=O)NC(=O)[C@H](CC(C)(C)C)NC(=O)[C@H](CC(=O)O)NC2=O (some centres unmarked) [I-2119]",
    "measurement.units": "nM",
    "IC50": 29
  },
  {
    "compound": "CC(=O)N1CCC[C@]12CC=CCCCC1(CCCC=CCCCOC(=O)N3CC[C@@](C(=O)N[C@@H](Cc4ccsc4)C(=O)N[C@@H](Cc4csc5ccccc45)C(=O)N[C@@H](CCC(N)=O)C(N)=O)(C3)NC(=O)[C@H](CC(N)=O)NC(=O)[C@H](Cc3cccc(C(F)(F)F)c3)NC(=O)[C@H](C)NC(=O)[C@H](C)NC(=O)[C@H]([C@@H](C)O)NC(=O)[C@H](CC(N)=O)NC1=O)NC(=O)[C@H](CC(C)(C)C)NC(=O)[C@H](CC(=O)O)NC2=O (some centres unmarked) [I-2010]",
    "measurement.units": "nM",
    "IC50": 1970
  },
  {
    "compound": "CC(=O)N1CCC[C@]12CC=CCCCCC1(CCCCC=CCOC(=O)N3CC[C@@](C(=O)N[C@@H](Cc4ccccc4C(F)(F)F)C(=O)N[C@@H](Cc4csc5ccccc45)C(=O)N[C@@H](C)C(N)=O)(C3)NC(=O)[C@H](CC(C)C)NC(=O)[C@H](Cc3ccccc3)NC(=O)[C@H](C)NC(=O)[C@H](CCC(N)=O)NC(=O)[C@H](Cc3cccc(C(=O)O)c3)NC(=O)[C@H](CC(=O)O)NC1=O)NC(=O)[C@H](CC(C)(C)C)NC(=O)[C@H](CC(=O)O)NC2=O (some centres unmarked) [I-2507]",
    "measurement.units": "nM",
    "IC50": 168
  },
  {
    "compound": "CC(=O)N1CCC[C@]12CC=CCCCC1(CCCC=CCCCOC(=O)N3CC[C@@](C(=O)N[C@@H](Cc4ccccc4)C(=O)N[C@@H](Cc4csc5ccccc45)C(=O)N[C@@H](CCC(N)=O)C(N)=O)(C3)NC(=O)[C@H]([C@@H](C)O)NC(=O)[C@H](Cc3ccccc3)NC(=O)[C@H](C)NC(=O)[C@H](C)NC(=O)[C@H](Cc3c[nH]cn3)NC(=O)[C@H](CC(=O)O)NC1=O)NC(=O)[C@H](CC(C)(C)C)NC(=O)[C@H](CCO)NC2=O (some centres unmarked)",
    "measurement.units": "nM",
    "IC50": 1760
  }
]

Continue with the compound presented below.
Quick one: IC50 of CC[C@@H](C)[C@@H]1NC(=O)[C@H](CC(=O)O)NC(=O)[C@]2(CC=CCCCC3(CCCC=CCCCCCC[C@@](C)(C(=O)N[C@@H](Cc4ccccc4)C(=O)N[C@@H](Cc4csc5ccccc45)C(=O)N[C@@H](CCC(N)=O)C(N)=O)NC(=O)[C@H](CC(N)=O)NC(=O)[C@H](Cc4ccccc4)NC(=O)[C@H](C)NC(=O)[C@H](C)NC(=O)[C@H](CCC(=O)O)NC(=O)[C@H](CC(=O)O)NC3=O)NC1=O)CCCN2C(C)=O (some centres unmarked) [I-475] ?
102

----------
- measurement.target: beta-catenin/TCF4 engagement (Homo sapiens)
- Construct: expressed in transfected cells; host or cells: HEK293
- Sequence (P35222 1-781): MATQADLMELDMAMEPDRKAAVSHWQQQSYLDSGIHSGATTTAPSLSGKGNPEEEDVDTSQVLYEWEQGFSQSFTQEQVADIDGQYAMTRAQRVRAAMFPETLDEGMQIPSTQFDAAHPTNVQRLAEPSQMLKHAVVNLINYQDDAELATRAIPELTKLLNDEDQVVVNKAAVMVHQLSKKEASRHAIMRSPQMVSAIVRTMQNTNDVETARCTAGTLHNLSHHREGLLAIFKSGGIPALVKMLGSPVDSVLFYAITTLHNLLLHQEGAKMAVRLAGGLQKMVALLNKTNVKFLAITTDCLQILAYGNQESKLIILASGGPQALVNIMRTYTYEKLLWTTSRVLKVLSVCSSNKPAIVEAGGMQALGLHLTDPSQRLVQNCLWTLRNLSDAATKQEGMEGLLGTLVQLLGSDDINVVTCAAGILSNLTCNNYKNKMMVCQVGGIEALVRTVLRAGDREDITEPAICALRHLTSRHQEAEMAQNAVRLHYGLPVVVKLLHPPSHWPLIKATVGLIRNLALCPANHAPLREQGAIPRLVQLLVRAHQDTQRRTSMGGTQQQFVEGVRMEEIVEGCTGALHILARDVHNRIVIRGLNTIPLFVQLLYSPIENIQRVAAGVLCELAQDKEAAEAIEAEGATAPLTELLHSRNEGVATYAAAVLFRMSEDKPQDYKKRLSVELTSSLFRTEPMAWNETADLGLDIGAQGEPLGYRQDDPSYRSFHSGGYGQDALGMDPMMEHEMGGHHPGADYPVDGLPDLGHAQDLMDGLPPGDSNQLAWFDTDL
- assay: Nano-BRET target engagement assay (B-cat-Halo & TCF4-Luc in HEK293 cells)
- Assay type: cell-based
- protocol.conditions: absolute IC50; read-out: NanoBRET Abs IC50
Property: IC50; scope: individual compounds
Please state the figure in µM; there is no need to write the unit.

Quick one: IC50 of CC(=O)N1CCC[C@]12CC=CCCCC1(CCCC=CCCCOC(=O)N3CC[C@@](C(=O)N[C@@H](Cc4ccsc4)C(=O)N[C@@H](Cc4csc5ccccc45)C(=O)N[C@@H](CCC(N)=O)C(N)=O)(C3)NC(=O)[C@H](CC(C)C)NC(=O)[C@H](Cc3ccccc3)NC(=O)[C@H](C)NC(=O)[C@H](C)NC(=O)[C@H](CCC(=O)O)NC(=O)[C@H](CC(=O)O)NC1=O)NC(=O)[C@H](CC(C)(C)C)NC(=O)[C@H](CC(=O)O)NC2=O (stereo partly drawn) ?
7.1

Quick one: IC50 of CC(=O)N1CCC[C@]12CC=CCCCC1(CCCC=CCCCOC(=O)N3CC[C@@](C(=O)N[C@@H](Cc4ccsc4)C(=O)N[C@@H](Cc4csc5ccccc45)C(=O)N[C@@H](CCC(N)=O)C(N)=O)(C3)NC(=O)[C@H](CC(C)C)NC(=O)[C@H](Cc3ccccc3)NC(=O)[C@H](C)NC(=O)[C@H](C)NC(=O)[C@H](CNc3ncccc3C(=O)O)NC(=O)[C@H](CC(=O)O)NC1=O)NC(=O)[C@H](CC(C)(C)C)NC(=O)[C@H](CC(=O)O)NC2=O (stereo partly drawn) ?
6.3

Quick one: IC50 of CC(=O)N1CCC[C@]12CC=CCCCC1(CCCC=CCCCCCC[C@@](C)(C(=O)N[C@@H](Cc3ccsc3)C(=O)N[C@@H](Cc3csc4ccccc34)C(=O)N[C@@H](CCC(N)=O)C(N)=O)NC(=O)[C@H](CC(N)=O)NC(=O)[C@H](Cc3ccccc3)NC(=O)[C@H](C)NC(=O)[C@H](C)NC(=O)[C@H](CN(CCCC(F)(F)F)CC(=O)O)NC(=O)[C@H](CC(=O)O)NC1=O)NC(=O)[C@H](CC(C)(C)C)NC(=O)[C@H](CC(=O)O)NC2=O (stereo partly drawn) [I-1455] ?
23.1

Quick one: IC50 of CC(=O)N1CCC[C@]12CC=CCCCC1(CCCC=CCCCOC(=O)N3CC[C@@](C(=O)N[C@@H](Cc4ccccc4Cl)C(=O)N[C@@H](Cc4csc5ccccc45)C(=O)N[C@@H](CCC(N)=O)C(=O)N[C@H](CO)Cc4ccccc4)(C3)NC(=O)[C@H](CC(C)C)NC(=O)[C@H](Cc3ccccc3)NC(=O)[C@H](C)NC(=O)[C@H](C)NC(=O)[C@H](Cc3cccc(C(=O)O)c3)NC(=O)[C@H](CC(=O)O)NC1=O)NC(=O)[C@H](CC(C)(C)C)NC(=O)[C@H](CC(=O)O)NC2=O (stereo partly drawn) ?
18.3

Quick one: IC50 of CC(=O)N1CCC[C@]12CC=CCCCC1(CCCC=CCCCOC(=O)N3CC[C@@](C(=O)N[C@@H](Cc4ccsc4)C(=O)N[C@@H](Cc4csc5ccccc45)C(=O)N[C@@H](CCC(N)=O)C(N)=O)(C3)NC(=O)[C@H](Cc3cccc(C(F)(F)F)c3)NC(=O)[C@H](Cc3ccccc3)NC(=O)[C@H](C)NC(=O)[C@H](C)NC(=O)[C@H](CC(=O)O)NC(=O)[C@H](CC(=O)O)NC1=O)NC(=O)[C@H](CC(C)(C)C)NC(=O)[C@H](CC(=O)O)NC2=O (stereo partly drawn) ?
10.5
